# systemTested: T1, Human EphA2 (Ecto) (Human, UniProt P29317 24-537)
# T1 construct: extracellular domain
# T1 sequence (P29317 24-537): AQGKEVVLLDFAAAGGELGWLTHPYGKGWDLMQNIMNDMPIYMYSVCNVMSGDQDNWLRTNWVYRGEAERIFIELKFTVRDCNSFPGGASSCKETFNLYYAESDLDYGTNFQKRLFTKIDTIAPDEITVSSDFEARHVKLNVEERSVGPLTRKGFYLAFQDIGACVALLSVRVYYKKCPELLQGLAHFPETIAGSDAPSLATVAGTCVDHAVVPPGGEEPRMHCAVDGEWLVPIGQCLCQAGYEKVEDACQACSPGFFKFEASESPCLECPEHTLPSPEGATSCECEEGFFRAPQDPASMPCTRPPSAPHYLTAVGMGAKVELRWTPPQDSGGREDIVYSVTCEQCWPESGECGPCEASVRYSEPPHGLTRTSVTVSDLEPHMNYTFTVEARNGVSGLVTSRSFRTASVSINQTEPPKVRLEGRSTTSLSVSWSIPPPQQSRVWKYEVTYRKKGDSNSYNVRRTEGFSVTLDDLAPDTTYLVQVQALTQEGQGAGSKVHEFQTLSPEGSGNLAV
# protocol: FP competition; competitor Compound 66
Numbered stars: 1 amine (or outer) side, 2 acyl side, 3 side chain; on linkers, the order of the positions; unused ones are H or OH. Bridge positions count the residues as written; N and C are the ends. Square brackets hold non-standard residues; d marks the D form. Ends that are not written are not given here. 1Nal = N[C@@H](Cc1cccc2ccccc12)C(=O)O; TBMB = c1c(C[*:1])cc(C[*:3])cc1C[*:2]; Tle = CC(C)(C)[C@H](N)C(=O)O; Aib = CC(C)(N)C(=O)O; Sar = CNCC(=O)O
measuredAttribute: Ki (nM)

# annotated cases, reported Ki shown
[Sar][Sar]ACPWGPF[1Nal]CPV[dA]RPGC (linker 4-11-18 via TBMB) [Compound 117]	75
[Sar][Sar]AC[Aib][1Nal]GPFWCPVNRPGC (linker 4-11-18 via TBMB) [Compound 113]	6.6
[Sar][Sar]ACP[1Nal]GPFWCPV[dA]RPGC (linker 4-11-18 via TBMB) [Compound 115]	1.64
[Sar][Sar]ACP[1Nal]G[Aib]FWCPVNRP[dA]C (linker 4-11-18 via TBMB) [Compound 128]	16

A: ACRVSPEYCPFGPSWCA (linker 2-9-16 via TBMB) [Compound 36]
B: AEGLPCPWGPFWCPVNRPGCA (linker 6-13-20 via TBMB) [Compound 55]
C: [Sar][Sar]ACP[1Nal]GPFWCP[Tle][dA]RPGC (linker 4-11-18 via TBMB) [Compound 129]
Inquiry: Rank the items in ascending order with respect to Ki. The labels, placed in the requested order, form the answer.
Reply text: B, C, A

Provenance of the data: patent US20200338203A1
